# assay.info: Antitumor activity against mouse Ridgway osteogenic sarcoma allografted in AKR mouse assessed as tumor growth inhibition at 0.40 mg/kg, ip administered daily for 8 to 10 days compound treatment commenced 8 days after tumor implantation
# Type: functional
# conditions: route intraperitoneal, read-out: TGI
Listing of entries alongside the reported inhibition in vivo at 0.4 mg/kg.
Reply numerically in %, unit not repeated.

# chemical.string, assay.readout, readout.number
data = [
    ("CCCCCCNC(=O)[C@@]1(O)[C@H](O)[C@]2(CC)C=CCN3CC[C@@]4(c5cc([C@@]6(C(=O)OC)C[C@@H]7CN(CCc8c6[nH]c6ccccc86)C[C@](O)(CC)C7)c(OC)cc5N(C)[C@@H]14)[C@@H]32", "inhibition in vivo at 0.4 mg/kg", 0),
    ("CC[C@]1(O)C[C@H]2CN(CCc3c([nH]c4ccccc34)[C@@](C(=O)OC)(c3cc4c(cc3OC)N(C)[C@H]3[C@@](O)(C(=O)NCCCO)[C@H](O)[C@]5(CC)C=CCN6CC[C@]43[C@@H]65)C2)C1", "inhibition in vivo at 0.4 mg/kg", 76),
]

Reported inhibition in vivo at 0.4 mg/kg, compound CC[C@]1(O)C[C@H]2CN(CCc3c([nH]c4ccccc34)[C@@](C(=O)OC)(c3cc4c(cc3OC)N(C)[C@H]3[C@@](O)(C(=O)NCCO)[C@H](O)[C@]5(CC)C=CCN6CC[C@]43[C@@H]65)C2)C1.O=S(=O)(O)O : ____
76

Reported inhibition in vivo at 0.4 mg/kg, compound CC[C@]1(O)C[C@H]2CN(CCc3c([nH]c4ccccc34)[C@@](C(=O)OC)(c3cc4c(cc3OC)N(C)[C@H]3[C@@](O)(C(=O)NCc5ccccc5)[C@H](O)[C@]5(CC)C=CCN6CC[C@]43[C@@H]65)C2)C1 : ____
76

====

Listing of entries alongside the reported inhibition in vivo at 0.4 mg/kg.
# assay.info: Antitumor activity against mouse Gardner lymphosarcoma allografted in C3H mouse assessed as tumor growth inhibition at 0.40 mg/kg, ip administered daily for 8 to 10 days
# Format: functional
# conditions: route intraperitoneal, read-out: TGI
Reply numerically in %, unit not repeated.

Reported inhibition in vivo at 0.4 mg/kg, compound CC[C@]1(O)C[C@H]2CN(CCc3c([nH]c4ccccc34)[C@@](C(=O)OC)(c3cc4c(cc3OC)N(C)[C@H]3[C@@](O)(C(=O)NCCN(C)C)[C@H](O)[C@]5(CC)C=CCN6CC[C@]43[C@@H]65)C2)C1 : ____
0

Reported inhibition in vivo at 0.4 mg/kg, compound CCCCCCCCCCCCCCCCCC(=O)OCCNC(=O)[C@@]1(O)[C@H](O)[C@]2(CC)C=CCN3CC[C@@]4(c5cc([C@@]6(C(=O)OC)C[C@@H]7CN(CCc8c6[nH]c6ccccc86)C[C@](O)(CC)C7)c(OC)cc5N(C)[C@@H]14)[C@@H]32 : ____
76

Reported inhibition in vivo at 0.4 mg/kg, compound CC[C@]1(O)C[C@@H]2CN(CCc3c([nH]c4ccccc34)[C@@](C(=O)OC)(c3cc4c(cc3OC)N(C)[C@H]3[C@@](O)(C(N)=O)[C@H](O)[C@]5(CC)C=CCN6CC[C@]43[C@@H]65)C2)C1.O=S(=O)(O)O [VINDESINE SULFATE] : ____
76

Reported inhibition in vivo at 0.4 mg/kg, compound CC[C@]1(O)C[C@H]2CN(CCc3c([nH]c4ccccc34)[C@@](C(=O)OC)(c3cc4c(cc3OC)N(C)[C@H]3[C@@](O)(C(=O)NCCC#N)[C@H](O)[C@]5(CC)C=CCN6CC[C@]43[C@@H]65)C2)C1 : ____
76

Reported inhibition in vivo at 0.4 mg/kg, compound CC[C@]1(O)C[C@H]2CN(CCc3c([nH]c4ccccc34)[C@@](C(=O)OC)(c3cc4c(cc3OC)N(C)[C@H]3[C@@](O)(C(=O)NCCc5ccc(O)cc5)[C@H](O)[C@]5(CC)C=CCN6CC[C@]43[C@@H]65)C2)C1 : ____
26

Reported inhibition in vivo at 0.4 mg/kg, compound CC[C@]1(O)C[C@H]2CN(CCc3c([nH]c4ccccc34)[C@@](C(=O)OC)(c3cc4c(cc3OC)N(C)[C@H]3[C@@](O)(C(=O)NCCSC(c5ccccc5)(c5ccccc5)c5ccccc5)[C@H](O)[C@]5(CC)C=CCN6CC[C@]43[C@@H]65)C2)C1 : ____
0

Reported inhibition in vivo at 0.4 mg/kg, compound CC[C@]1(O)C[C@H]2CN(CCc3c([nH]c4ccccc34)[C@@](C(=O)OC)(c3cc4c(cc3OC)N(C)[C@H]3[C@@](O)(C(=O)NCCSC(c5ccc(OC)cc5)(c5ccc(OC)cc5)c5ccc(OC)cc5)[C@H](O)[C@]5(CC)C=CCN6CC[C@]43[C@@H]65)C2)C1 : ____
0

Reported inhibition in vivo at 0.4 mg/kg, compound CC[C@]1(O)C[C@H]2CN(CCc3c([nH]c4ccccc34)[C@@](C(=O)OC)(c3cc4c(cc3OC)N(C)[C@H]3[C@@](O)(C(=O)NCC=O)[C@H](O)[C@]5(CC)C=CCN6CC[C@]43[C@@H]65)C2)C1 : ____
76
